- TEST NAME: Drug uptake in Han Wistar rat plasma at 10 umol/kg, po administered via gavage measured 3 hrs post dose by LC/MS/MS analysis
- Format: ADME, organism-based
QUANTITY KIND: concentration at 3 h (nM)
Answers are plain numbers, in nM.

**Q:** Using the record for `CCn1ncc2c1CC[C@@H](Nc1nc3c(-c4ccc(F)cc4C)cccn3n1)C2` , report its concentration at 3 h.
**A:** 2680

###

- TEST NAME: Protein binding in rat plasma at 1 uM after 5 hrs by equilibrium dialysis based LC-MS/MS analysis
- Type: ADME, cell-free
- TEST CONTEXT: read-out: PPB (converted)
QUANTITY KIND: fraction unbound at 5 h, 1 µM
Numbers only.

**Q:** Can you share its fraction unbound at 5 h, 1 µM? I mean this molecule: `CCn1ncc2c1CC[C@@H](Nc1nc3c(-c4ccc(F)cc4C)cccn3n1)C2`
**A:** 0.012

###

- SYSTEM NAME: Gamma-secretase
- TEST NAME: Modulation of gamma-secretase in human E6 cells expressing HeLaTetON-NotchdeltaE-NLuc/CLuc-RBP assessed as notch cleavage after 16 hrs by bioluminescence assay
- Type: ADME, cell-based
QUANTITY KIND: IC50

**Q:** Param item = `CCn1ncc2c1CC[C@@H](Nc1nc3c(-c4ccc(F)cc4C)cccn3n1)C2` ; retrieve measured IC50.
**A:** > 30 µM

###

- TEST NAME: Clearance in Han Wistar rat at 1 umol/kg, iv administered as bolus by LC/MS/MS analysis
- Type: ADME, organism-based
- TEST CONTEXT: in vivo
QUANTITY KIND: clearance (mL/min/kg)
Give bare numbers, in mL/min/kg.

**Q:** I would be grateful if you could share the reported clearance for `CCn1ncc2c1CC[C@@H](Nc1nc3c(-c4ccc(F)cc4C)cccn3n1)C2` .
**A:** 40

###

- TEST NAME: Modulation of gamma secretase in rat E18 cells assessed as inhibition of amyloid beta 42 production after 22 hrs by electrochemiluminescence assay
- Assay type: cell-based
QUANTITY KIND: IC50 (nM)
Answers are plain numbers, in nM.

**Q:** Dear colleague, I am looking for the recorded IC50 of the following molecule: `CCn1ncc2c1CC[C@@H](Nc1nc3c(-c4ccc(F)cc4C)cccn3n1)C2`
**A:** 40

###

- SYSTEM NAME: Gamma-secretase
- TEST NAME: Modulation of gamma secretase in human H4 cells expressing human wild type APP assessed as inhibition of amyloid beta 42 production after 22 hrs by electrochemiluminescence assay
- Format: cell-based
pIC50: −log10 of the molar value.
Decision: pIC50 compared against 7; not below it gives True, below it gives False.

Here's what some known entries look like.
Cc1cc(F)ccc1-c1cccn2nc(NC3CCc4c(cnn4CC(C)C)C3)nc12 (stereo not given)	False
CCn1ncc2c1CC[C@@H](Nc1nc3c(-c4ccc(F)c(Cl)c4)cccn3n1)C2	True
Cc1cc(F)ccc1-c1cccn2nc(NC3CCc4cnn(C)c4C3)nc12 (stereo not given)	False
Cc1cc(F)ccc1-c1cccn2nc(NC3CCc4[nH]ncc4C3)nc12 (stereo not given)	False
CCn1ncc2c1CCC(Nc1nc3c(-c4ccc(F)c(Cl)c4)cccn3n1)C2 (stereo not given)	True
CCn1ncc2c1CCC(Nc1nc3c(-c4cncc(OC)c4)cccn3n1)C2 (stereo not given)	False
CCCCn1ncc2c1CCC(Nc1nc3c(-c4ccc(F)cc4C)cccn3n1)C2 (stereo not given)	False
Cc1cc(F)ccc1-c1cccn2nc(NC3CCc4c(cnn4C)C3)nc12 (stereo not given)	False

**Q:** Has CCn1ncc2c1CCC(Nc1nc3c(-c4cccc(Cl)c4)cccn3n1)C2 (stereo not given) a recorded pIC50 greater than or equal to 7?
**A:** True

**Q:** Could you tell me if the measured pIC50 of CCn1ncc2c1CCC(Nc1nc3c(-c4ccc(Cl)cc4)cccn3n1)C2 (stereo not given) reaches 7 or more?
**A:** True

###

- SYSTEM NAME: Gamma-secretase
- TEST NAME: Modulation of gamma secretase in human H4 cells expressing human wild type APP assessed as inhibition of amyloid beta 42 production after 22 hrs by electrochemiluminescence assay
- Type: cell-based
Friendly reminder: IC50 below 60 nM is yes (1), at or above is no (0).

Reference set (10 entries):
CCCCCn1ncc2c1CCC(Nc1nc3c(-c4ccc(F)cc4C)cccn3n1)C2 (stereo not drawn)	no (0)
CCn1ncc2c1CC[C@@H](Nc1nc3c(-c4ccc(F)cc4C)cccn3n1)C2	yes (1)
CCn1ncc2c1CCC(Nc1nc3c(-c4cncc(C)c4)cccn3n1)C2 (stereo not drawn)	no (0)
CCn1ncc2c1CCC(Nc1nc3c(-c4cncc(Cl)c4)cccn3n1)C2 (stereo not drawn)	yes (1)
CCn1nc(Cl)c2c1CCC(Nc1nc3c(-c4ccc(F)cc4C)cccn3n1)C2 (stereo not drawn)	no (0)
CCn1ncc2c1CCC(Nc1nc3c(-c4ccc(F)cc4)cccn3n1)C2 (stereo not drawn)	no (0)
CCc1nn(C)c2c1CCC(Nc1nc3c(-c4ccc(F)cc4C)cccn3n1)C2 (stereo not drawn)	no (0)
CCc1nnn2c1CCC(Nc1nc3c(-c4ccc(F)cc4C)cccn3n1)C2 (stereo not drawn)	no (0)
CCn1ncc2c1CCC(Nc1nc3c(-c4cc(F)c(F)c(F)c4)cccn3n1)C2 (stereo not drawn)	yes (1)
CCn1ncc2c1CCC(Nc1nc3c(-c4ccccc4)cccn3n1)C2 (stereo not drawn)	no (0)

**Q:** Strictly below 60 nM: is that where IC50 of CCn1ncc2c1CCC(Nc1nc3c(-c4cccnc4OC)cccn3n1)C2 (stereo not drawn) sits?
**A:** no (0)

**Q:** Here's an entry: CCn1ncc2c1CCC(Nc1nc3c(-c4cccnc4)cccn3n1)C2 (stereo not drawn) . Is its IC50 below 60 nM?
**A:** no (0)
